Value source: patent US20250340630A1

- test_target: T1, human Claudin18.2 (human, UniProt P56856-2 1-261)
- T1 construct: whole, on cells; Four-transmembrane protein, always presented on cells (transfected lines or NUGC-4 with endogenous expression); also called CLDN18.2
- protocol: flow cytometry on Ba/F3-Claudin18.2 cells, chimeric antibody
value_type: EC50 (nM)
Field format: number, assumed nM, no unit text.

Some binders with known EC50 results, for comparison:
chimeric antibody 1E9.2-hz00 (antibody, human IgG1, kappa, V domains shown, Mouse variable regions on human IgG1 / kappa constant regions; expressed in Expi293F; also called 1E9.2 chimeric antibody) VH: EVMLVESGGGLVKPGGSLKLSCAASGFSFSNSAMSWVRQTPEKRLEGVATISSGDSYTYYPDSVKGRFTISRDNAKNSLYLQMSSLRSEDTAVYYCARQGYGNALDYWGQGTSVTVSS VL: DIVMTQSPSSLTVTAGEKVTMSCKSSQSLLNSGNQKNYLTWYQQKPGQPPKLLIYWSSTRESGVPDRFTGSGSGTDFTLTISSVQAEDLAVYYCQNDYYYPLTFGAGTKLELKR ... 11
chimeric antibody 16A9.11-hz00 (antibody, human IgG1, kappa, V domains shown, Mouse variable regions on human IgG1 / kappa constant regions; expressed in Expi293F) VH: EVMLVESGGGLVKPGGSLKLSCAASGFSFSNSAMSWVRQTPEKRLEGVATISSGDSYTYYPDSVKGRFTISRDTAKNSLYLQMSSLRSEDTAVYYCTRQGYGNAMDYWGQGTSVTVSS VL: DIVMTQSPSSLTVTAGEKVTMSCKSSQSLLNSGNQKNYLTWYQQKPGQPPKLLIYWSSTRESGVPDRFTGSGSGTDFTLTISSVQAEDLAVYYCQNDYYYPLTFGAGTKLELKR ... 10.5
chimeric antibody 9C8.1-hz00 (antibody, human IgG1, kappa, V domains shown, Mouse variable regions on human IgG1 / kappa constant regions; expressed in Expi293F) VH: QVQLQQSGAELVRPGSSVKISCKASGYAFSNYWMNWVKQRPGQGLEWIGQIYPGDGDTNYNGKFKGKATLTTDKSSSTAYMQLSSLTSEDSAVYFCARLYYGNSFAYWGQGTLVTVSS VL: DIVMTQSPSSLTVTAGEKVTVSCKSSQSLLNSGNQKNYLTWYQQKPGQPPKLLIYWASTRESGVPDRFTGSGSGTDFTLTISSVQAADLAIYYCQNDYFYPFTFGGGTKLEIKR ... 23.9

Now for the binder whose EC50 we want.
Exam item: Which EC50 is reported for this binder? chimeric antibody 19H11.6-hz00 (antibody, human IgG1, kappa, V domains shown, Mouse variable regions on human IgG1 / kappa constant regions; expressed in Expi293F) VH: EVMLVESGGGLVKPGGSLKLSCAASGFSFSNSAMSWVRQTPEKRLEGVATISSGDSFTYYPDTVKGRFTISRDNAKNSLYLQMSRLRSEDTAVYYCARQGYGNALDYWGQGTSVTVSS VL: DIVMTQSPSSLTVTAGEKVTMTCKSSQSLLNSGNQKNYLTWYQQKPGQPPKLLIYWSSTRESGVPDRFTGSGSGTDFTLTISSVQAEDLAVYYCQNDYYYPLTFGAGTKLELKR
Marked response: 11.6
